System: HepG2 cells
measurement_protocol: CCK8 viability of cells infected by pSL4-Flag vector or pSL4-Flag-PGF lentivirus
Format: cell-based
run_conditions: Homo sapiens, HepG2, 48 h, HepG2 cells carrying empty vector
Description: Cell viability assay using the CCK8 reagent (Bimake, Shanghai, China) was conducted according to the manufacturer’s instructions. The cell proliferation data were used to calculate the cell viability. […] After 48 h, 10 µL of CCK8 reagent was added to each well, followed by 2 h incubation at 37°C and measurement of absorbance at 450 nm using a microplate reader (Molecular Devices, LLC.). […] The half maximal inhibitory concentrations (IC50) values were calculated using the GraphPad Prism 8 software. […]
value_kind: IC50 (µM)

> print(dat)
                                   compound  unit.name  measured.value
1  C=C1CC/C=C(\C)CC[C@@H]2[C@@H]1CC2(C)C [BCP, β-caryophyllene]         µM             178
